Reference for the values: the supplement of paper PMC10567573

B1: RSPH3 (parent)
chain: LELQRQREARKRALARKQAQEQLR

Variants of: B1
Test: protein stability index of a GFP-peptide fusion (GPS, HEK-293T) (PSI 1-6); higher = more stable;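 further: lentivirally expressed fusions sorted by FACS into six bins by GFP to DsRed ratio, PSI derived from sequencing read proportions per bin multiplied by bin number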
Details: c terminus: a fixed tail appended
Short version: protein stability index at least 4 is 1, less is 0.

| mutant | discrete_label |
| --- | --- |
| K11R | 0 |
| L14I | 0 |
| Q18M | 0 |
| K17E | 1 |
| L23I | 0 |

### Prompt Determine whether measured protein stability index meets or exceeds 4 for Q20N
### Response 0

### Prompt Also need E2Y , thanks.
### Response 0

### Prompt Same question for K11E please.
### Response 1

### Prompt And the next one, L23E ?
### Response 1
